Biological target: T1, VEGFR-3-Fc (UniProt P35916 25-328)
T1 construct: domain: first three Ig domains; conditioned supernatant of 293T cells; also called VEGFR-3-Fc fusion protein; not shown: Fc fragment of the pIg vector
T1 sequence (looked up): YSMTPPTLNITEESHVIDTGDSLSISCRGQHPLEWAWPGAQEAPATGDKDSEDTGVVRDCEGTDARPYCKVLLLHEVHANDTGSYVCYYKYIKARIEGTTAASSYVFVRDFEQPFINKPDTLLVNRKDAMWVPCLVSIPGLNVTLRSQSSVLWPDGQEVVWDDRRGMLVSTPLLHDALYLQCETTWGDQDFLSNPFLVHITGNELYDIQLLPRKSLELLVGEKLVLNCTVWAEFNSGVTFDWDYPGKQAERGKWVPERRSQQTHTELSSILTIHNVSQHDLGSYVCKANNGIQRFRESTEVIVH
Assay: receptor-Fc IP
Measured Endpoint: binding result

12-14 (ligand) GQNHHEVVKFMDVYQRSYCHPIETLVDIFQEFGVATNTFFKPPCVSVYRCGGCCNDEGLECMNTSTSYLSKTLFEITVPLSQGPKPVTISFANHTSCRCMSKLDL : binds

meta.source: patent US20080058263A1
